System: RXF 393
assay text: NCI tumour cell line growth inhibition, 48 h
Calls of active or inactive are those of the source. Rule as the data show it: active = GI50 up to about 1.1 µM and inactive = higher.
measured quantity: GI50

>>> result("CC(=O)c1c2c(cc3c1CC1(C3)Cc3cc4c(c(C(C)=O)c3C1)CCCC4)CCCC2")
"> 100 µM (inactive)"
>>> result("CC(C)c1cc2c(c(O)c1O)[C@@]1(C(=O)O)CCCC(C)(C)[C@@H]1CC2 [CARNOSIC ACID]")
"19.6 µM (inactive)"
>>> result("COC(=O)C1=C(C)N(NC(=O)c2ccccc2)C2(O)CCCC(=O)C12C (configuration not stated)")
"> 100 µM (inactive)"
>>> result("Cc1cc(-c2nc3cc(F)c(F)cc3s2)ccc1N")
"58.3 µM (inactive)"
>>> result("C=CCC1(O)CC(n2cc(C)c(=O)[nH]c2=O)OC1CO[Si](C)(C)C(C)(C)C (configuration not stated)")
"29 µM (inactive)"
>>> result("CC(NC(=O)C(C)C(=O)NCc1ccc(C(F)(F)F)cc1)C(N)=O (configuration not stated)")
"> 100 µM (inactive)"
>>> result("CC(=O)N1C(Nc2ccccn2)CCN1c1ccccc1 (configuration not stated)")
"> 10 µM (inactive)"
>>> result("COc1cc2ccc(/C=C\\[N+](=O)[O-])cc2cc1OC")
"1.87 µM (inactive)"
>>> result("CCCCCCCCCCCCCCCCC1=CC(=O)C=C(OC)C1=O")
"37 µM (inactive)"
>>> result("O=C1C(c2c(O)[nH]c3ccccc23)=Nc2ccc(Br)cc21")
"12.9 µM (inactive)"
>>> result("CCOC(=O)/C(=C/c1ccccn1)C(=O)c1ccccc1")
"11.2 µM (inactive)"
>>> result("O=C1c2cc(I)ccc2N2CCN=C2N1Cc1ccccc1")
"23.7 µM (inactive)"
>>> result("O=NN(CCCl)C(=O)NC1CCC(CC2CCC(NC(=O)N(CCCl)N=O)CC2)CC1 (configuration not stated)")
"1.66 µM (inactive)"
>>> result("CC(=O)CCC[C@H](C)[C@@H](O)[C@@H]1O[C@H]([C@@]2(C)CCC(=O)O2)C[C@H]1C(=O)O")
"> 100 µM (inactive)"
>>> result("CC1=C(C(=O)N[C@@H](Cc2ccccc2)C(=O)O)N2C(=O)[C@@H](NC(=O)[C@@H](N)CC(C)C)[C@H]2SC1")
"> 100 µM (inactive)"
>>> result("Cc1ccc(N2C(=O)C(=O)N(/N=C3\\C(=O)Nc4ccccc43)C2=S)cc1")
"39.1 µM (inactive)"
>>> result("CCOC(=O)CCC(C(=O)OCC)n1nnc2ccc(Nc3c(C)[n+]([O-])c4cc(F)c(OCC)cc4[n+]3[O-])cc21 (configuration not stated)")
"41.8 µM (inactive)"
>>> result("Cc1cccc(C)c1NC(=O)CCCC(=O)C(C#N)c1ccccc1 (configuration not stated)")
"> 100 µM (inactive)"
>>> result("O=C(O)CCCc1ccc2c(c1)C(C(=O)O)CC2 (configuration not stated)")
"> 100 µM (inactive)"
>>> result("CC1=NOC(C)(O)/C1=N/O (configuration not stated)")
"> 100 µM (inactive)"
>>> result("Cc1c2ccc3ccccc3c2c[n+]2ccccc12")
"22.3 µM (inactive)"
>>> result("CCOC(OCC)(OCC)C(Br)CC (configuration not stated)")
"> 100 µM (inactive)"
